B1: Osa-1-4 twister ribozyme (parent)
chain: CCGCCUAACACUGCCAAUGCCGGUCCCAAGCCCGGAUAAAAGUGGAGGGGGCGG

# Variants of: B1
# PROTOCOL DETAILS: self-cleavage, relative activity (ratio to wild type); higher = more cleavage; co-transcriptional
Quick reference: self-cleavage of the listed items.
// print number alone

Worked set:
{"columns": ["MUTATION LIST", "MEASURED NUMBER"],
 "data": [
  ["G51A U12G", 0.07],
  ["G49A U18C", 0.16],
  ["C52G U18G", 0.86],
  ["A7C C32G", 0.02],
  ["A29U G30C", 0.02],
  ["A17G C31U", 0.9],
  ["C21G G45A", 0.04],
  ["A46G U12A", 0.05],
  ["A7G G42A", 0.13],
  ["A28U G47A", 0.09]
]}

[ask] Look at this variant and give its reported self-cleavage. A46C G44C
[reply] 0.06

[ask] Look at this variant and give its reported self-cleavage. A41U U43A
[reply] 0.81

[ask] Look at this variant and give its reported self-cleavage. C11G G50A
[reply] 0.11

[ask] Look at this variant and give its reported self-cleavage. C27A G22U
[reply] 0.06
